Would you kindly list log10(MIC) for each of these compounds?
Test system: Mycobacterium tuberculosis
Assay: Antibacterial activity against Mycobacterium tuberculosis H37Rv ATCC 27294 by microplate alamar blue assay
Assay type: functional
Note: values are log10 of MIC expressed in µg/mL.

Illustrative cases are given below, each with its answer.
[[record]]
compound = "CCCC[C@H](O)CN1CCC(COc2ccc(C(=O)c3ccc(Cl)cc3)c(Cl)c2)CC1"
endpoint_result = 0.18

[[record]]
compound = "CCCCCC[C@H](CN1CCC(COc2cccc(C(=O)c3ccc(Cl)cc3)c2)CC1)OC(N)=O"
endpoint_result = 0.36

[[record]]
compound = "NNC(=O)c1ccncc1"
endpoint_result = -1.52

[[record]]
compound = "CCCCCC[C@H](O)CN1CCC(COc2cccc(C(=O)c3ccc(Cl)cc3)c2)CC1"
endpoint_result = 1.10

[[record]]
compound = "COc1ccc(CCN[C@@H](CO)c2cccc(COc3cccc(C(=O)c4ccc(Cl)cc4)c3)c2)cc1"
endpoint_result = 1.10

[[record]]
compound = "CCCCCC[C@@H](O)CN1CCC(COc2ccc(C(=O)c3ccc(Cl)cc3)c(Cl)c2)CC1"
endpoint_result = 0.80


Quick one: give me log10(MIC) for each item below, same order please.
1. CCCCCC[C@H](O)CN1CCC(COc2ccc(C(=O)c3ccc(Cl)cc3)c(Cl)c2)CC1
2. CCCCC(O)CN1CCC(COc2cccc(C(=O)c3ccc(Cl)cc3)c2)CC1 (racemic)
3. CCCCCCC[C@H](O)c1cccc(CN2CCC(COc3ccc(/C(=N\OC)c4ccc(Cl)cc4)c(Cl)c3)CC2)c1

1: 0.18; 2: 1.10; 3: 1.10
